experiment: In vitro cytotoxicity against human normal cell line (MTT); assay type: cell-based; conditions: human, WI38 human lung fibroblast cells (normal cell line); WI38; Conc. 12.5 µM; read-out: Average of Relative viability of cells (%)
The reader will find reported viability at 12.5 µM values listed item by item below.
Respond with the figure and its unit, in that order.

Below, 3 compounds whose answers are already recorded.
[[record]]
test_smiles = "O=C(/C=C/N1CCCCC1)c1cc2ccccc2o1"
value = "91.8%"

[[record]]
test_smiles = "C\\C(=N/N=C/C=C/c1ccccc1)c1cc2ccccc2o1"
value = "78.1%"

[[record]]
test_smiles = "C/C(=N\\NC(=S)Nc1ccc(Cl)cc1)c1cc2ccccc2o1"
value = "75.6%"


# input for lookup
Could you share which viability at 12.5 µM value was measured for C/C(=N\NC(=O)Nc1ccc(Cl)cc1)c1cc2ccccc2o1 ? 100%
